Quick list: Solubility per entry.
Test: Solubility in PBS
Assay type: physicochemical
State the answer as a number, implicitly in µM.

Example cases with answers are listed next.
# query: Solubility of entry C[C@@H]1NC(=O)[C@H](C)NC(=O)[C@H](CN(CC(=O)O)CC(F)(F)F)NC(=O)[C@H](CC(=O)O)NC(=O)C2(CCCC=CCCCOC(=O)N3CC[C@@](C(=O)N[C@@H](Cc4ccccc4Cl)C(=O)N[C@@H](Cc4csc5ccccc45)C(=O)N[C@@H](CCC(N)=O)C(N)=O)(C3)NC(=O)[C@H]([C@@H](C)O)NC(=O)[C@H](Cc3ccccc3)NC1=O)CCCC=CC[C@]1(CCCN1C(=O)CN=[N+]=[N-])C(=O)N[C@@H](CC(=O)O)C(=O)N[C@@H](CC(C)(C)C)C(=O)N2 (some centres unmarked)
42

# query: Solubility of entry CC(=O)N1CCC[C@]12CC=CCCCC1(CCCC=CCCCCCC[C@@](C)(C(=O)N[C@@H](Cc3ccccc3Cl)C(=O)N[C@@H](Cc3csc4ccccc34)C(=O)N[C@@H](Cc3c[nH]cn3)C(N)=O)NC(=O)[C@H](CC(C)C)NC(=O)[C@H](Cc3ccccc3)NC(=O)[C@H](C)NC(=O)[C@H](C)NC(=O)[C@H](CC(=O)O)NC(=O)[C@H](CC(=O)O)NC1=O)NC(=O)[C@H](CC(C)(C)C)NC(=O)[C@H](CC(=O)O)NC2=O (some centres unmarked)
10

# query: Solubility of entry CC(=O)N1CCC[C@]12CC=CCCCC1(CCCC=CCCCCCC[C@@](C)(C(=O)N[C@@H](Cc3ccccc3)C(=O)N[C@@H](Cc3csc4ccccc34)C(N)=O)NC(=O)[C@H](CC(N)=O)NC(=O)[C@H](Cc3ccccc3)NC(=O)[C@H](C)NC(=O)[C@H](C)NC(=O)[C@H](CCC(=O)O)NC(=O)[C@H](CC(=O)O)NC1=O)NC(=O)[C@H](CC(C)(C)C)NC(=O)[C@H](CC(=O)O)NC2=O (some centres unmarked) [I-712]
42

# query: Solubility of entry CC(=O)N1CCC[C@]12CC=CCCCC1(CCCC=CCOC(=O)N(C)CCC[C@@](C)(C(=O)N[C@@H](Cc3ccsc3)C(=O)N[C@@H](Cc3csc4ccccc34)C(=O)N[C@@H](CCC(N)=O)C(N)=O)NC(=O)[C@H](CC(N)=O)NC(=O)[C@H](Cc3ccccc3)NC(=O)[C@H](C)NC(=O)[C@H](C)NC(=O)[C@H](CC(=O)O)NC(=O)[C@H](CC(=O)O)NC1=O)NC(=O)[C@H](CC(C)(C)C)NC(=O)[C@H](CC(=O)O)NC2=O (some centres unmarked) [I-765]
49

Next:
# query: Solubility of entry CC(=O)N1CCC[C@]12CC=CCCCC1(CCCC=CCCCCCC[C@@](C)(C(=O)N[C@@H](Cc3ccccc3)C(=O)N[C@@H](Cc3csc4ccccc34)C(=O)N[C@@H](CCC(N)=O)C(=O)N[C@@H](C)C(N)=O)NC(=O)[C@H](CC(N)=O)NC(=O)[C@H](Cc3ccccc3)NC(=O)[C@H](C)NC(=O)[C@H](C)NC(=O)[C@H](CCC(=O)O)NC(=O)[C@H](CC(=O)O)NC1=O)NC(=O)[C@H](CC(C)C)NC(=O)[C@H](CC(=O)O)NC2=O (some centres unmarked)
44
